target: α-1A adrenoceptor (dog prostate); construct: from tissue; host or cells: canine prostate strips; assay: Functional antagonism of phenylephrine-induced contraction of canine prostate strips; assay type: cell-based, dog (canine); details: vs phenylephrine-induced contraction, Schild plot; read-out: pA2 Dog Prostate [α-1A] (converted)
Sequence (P35348 whole entry): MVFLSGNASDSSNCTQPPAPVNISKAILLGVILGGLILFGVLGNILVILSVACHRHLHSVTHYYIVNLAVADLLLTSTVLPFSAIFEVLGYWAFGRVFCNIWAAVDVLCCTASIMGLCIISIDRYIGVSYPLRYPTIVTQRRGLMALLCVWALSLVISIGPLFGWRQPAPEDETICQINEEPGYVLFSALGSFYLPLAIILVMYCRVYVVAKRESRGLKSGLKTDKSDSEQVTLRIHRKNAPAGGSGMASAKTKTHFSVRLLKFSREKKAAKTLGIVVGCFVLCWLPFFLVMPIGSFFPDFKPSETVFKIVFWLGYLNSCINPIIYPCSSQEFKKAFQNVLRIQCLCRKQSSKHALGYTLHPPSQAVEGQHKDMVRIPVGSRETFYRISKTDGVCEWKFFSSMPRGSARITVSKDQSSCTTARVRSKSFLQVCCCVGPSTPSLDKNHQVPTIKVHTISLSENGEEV
Structures can show the parent of a compound that is named as a salt.
READOUT NAME: Kb (nM)
I only need the number, in nM, no unit after it.

Example entries and their recorded answers appear below.
1. COc1cccc2c1CC[C@H]1CN(CCn3c(=O)[nH]c4cc(-c5ccccc5)sc4c3=O)C[C@@H]21 (relative stereo) [Example 32, hydrochloride]: 33.9
2. COc1cccc2c1CC[C@H]1CN(CCn3c(=O)[nH]c4cccc(Cl)c4c3=O)C[C@@H]21 (relative stereo) [Example 23, hydrochloride]: 4.79

Lookup: Report Kb for COc1cccc2c1CC[C@H]1CN(CCn3c(=O)[nH]c4ncccc4c3=O)C[C@@H]21 (relative stereo) [Example 21, hydrochloride] please.
Found: 13.2
